# assayName: Cytotoxicity against human […] cells
# Type: toxicity, cell-based
# testConditions: U2OS cells
testReadout: IC50 (nM)
Quick note: give the figure in nM, leave out the unit.

Query :: Could you please provide reported IC50 for "C1=Nc2ccccc2/C1=C/NNc1nc(Nc2ccccc2)nc(N2CCOCC2)n1" ? Thanks!
Result :: 14

---

# experimentalTarget: Cyclin-G-associated kinase (Homo sapiens, UniProt O14976)
# Sequence (O14976 whole entry): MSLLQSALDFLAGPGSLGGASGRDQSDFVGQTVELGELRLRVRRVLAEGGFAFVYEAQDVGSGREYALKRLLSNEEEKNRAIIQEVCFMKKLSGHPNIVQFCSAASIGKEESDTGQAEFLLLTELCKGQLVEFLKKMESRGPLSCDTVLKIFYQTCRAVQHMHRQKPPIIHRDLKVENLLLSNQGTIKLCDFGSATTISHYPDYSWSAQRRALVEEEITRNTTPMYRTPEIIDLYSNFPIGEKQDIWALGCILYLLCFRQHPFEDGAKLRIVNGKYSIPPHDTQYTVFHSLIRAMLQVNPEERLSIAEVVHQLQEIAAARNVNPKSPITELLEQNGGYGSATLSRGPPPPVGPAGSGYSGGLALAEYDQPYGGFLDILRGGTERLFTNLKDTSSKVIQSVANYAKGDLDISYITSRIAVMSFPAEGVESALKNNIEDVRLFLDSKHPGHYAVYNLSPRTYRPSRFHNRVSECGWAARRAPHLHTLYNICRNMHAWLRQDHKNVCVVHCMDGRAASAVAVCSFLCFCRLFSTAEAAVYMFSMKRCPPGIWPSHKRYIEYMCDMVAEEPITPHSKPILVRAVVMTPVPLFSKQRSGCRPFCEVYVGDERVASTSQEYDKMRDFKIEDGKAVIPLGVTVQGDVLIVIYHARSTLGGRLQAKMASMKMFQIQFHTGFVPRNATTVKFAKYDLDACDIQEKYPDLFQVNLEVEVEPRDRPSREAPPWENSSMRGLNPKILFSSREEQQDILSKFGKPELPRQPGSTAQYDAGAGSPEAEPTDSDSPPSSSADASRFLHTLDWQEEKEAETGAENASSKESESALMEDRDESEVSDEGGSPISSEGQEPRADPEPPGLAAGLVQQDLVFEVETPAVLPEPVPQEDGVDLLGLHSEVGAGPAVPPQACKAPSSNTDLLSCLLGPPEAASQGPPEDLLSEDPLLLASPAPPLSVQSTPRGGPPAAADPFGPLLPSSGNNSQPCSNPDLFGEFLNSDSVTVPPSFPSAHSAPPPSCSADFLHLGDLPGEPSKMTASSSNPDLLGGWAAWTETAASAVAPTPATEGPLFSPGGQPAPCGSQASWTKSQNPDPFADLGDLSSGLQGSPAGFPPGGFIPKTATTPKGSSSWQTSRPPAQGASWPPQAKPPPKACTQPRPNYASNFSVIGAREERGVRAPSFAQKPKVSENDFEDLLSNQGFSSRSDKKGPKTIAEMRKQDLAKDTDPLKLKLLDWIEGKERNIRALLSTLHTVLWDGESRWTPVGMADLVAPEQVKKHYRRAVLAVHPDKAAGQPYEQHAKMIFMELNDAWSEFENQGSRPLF
testReadout: pKd
Remember, pKd is on a log scale: it is -log10 of the molar concentration.

Query :: Look up pKd of "COc1cc(N(C)c2ccnc3ccc(C(F)(F)F)cc23)cc(OC)c1OC" and report it.
Result :: 5.60

---

# Test system: Middle East respiratory syndrome-related coronavirus
# assayName: microbe, parasite or virus in culture
# testConditions: Vero
testReadout: pEC50
The scale used: pEC50 is minus the common logarithm of the concentration in molar units.

Query :: Tell me measured pEC50 for "CN1CCN(CCOc2cc(OC3CCOCC3)c3c(Nc4c(Cl)ccc5c4OCO5)ncnc3c2)CC1" please.
Result :: 5.54

---

# experimentalTarget: 1-phosphatidylinositol 3-phosphate 5-kinase (Homo sapiens)
# Sequence (Q9Y2I7 whole entry): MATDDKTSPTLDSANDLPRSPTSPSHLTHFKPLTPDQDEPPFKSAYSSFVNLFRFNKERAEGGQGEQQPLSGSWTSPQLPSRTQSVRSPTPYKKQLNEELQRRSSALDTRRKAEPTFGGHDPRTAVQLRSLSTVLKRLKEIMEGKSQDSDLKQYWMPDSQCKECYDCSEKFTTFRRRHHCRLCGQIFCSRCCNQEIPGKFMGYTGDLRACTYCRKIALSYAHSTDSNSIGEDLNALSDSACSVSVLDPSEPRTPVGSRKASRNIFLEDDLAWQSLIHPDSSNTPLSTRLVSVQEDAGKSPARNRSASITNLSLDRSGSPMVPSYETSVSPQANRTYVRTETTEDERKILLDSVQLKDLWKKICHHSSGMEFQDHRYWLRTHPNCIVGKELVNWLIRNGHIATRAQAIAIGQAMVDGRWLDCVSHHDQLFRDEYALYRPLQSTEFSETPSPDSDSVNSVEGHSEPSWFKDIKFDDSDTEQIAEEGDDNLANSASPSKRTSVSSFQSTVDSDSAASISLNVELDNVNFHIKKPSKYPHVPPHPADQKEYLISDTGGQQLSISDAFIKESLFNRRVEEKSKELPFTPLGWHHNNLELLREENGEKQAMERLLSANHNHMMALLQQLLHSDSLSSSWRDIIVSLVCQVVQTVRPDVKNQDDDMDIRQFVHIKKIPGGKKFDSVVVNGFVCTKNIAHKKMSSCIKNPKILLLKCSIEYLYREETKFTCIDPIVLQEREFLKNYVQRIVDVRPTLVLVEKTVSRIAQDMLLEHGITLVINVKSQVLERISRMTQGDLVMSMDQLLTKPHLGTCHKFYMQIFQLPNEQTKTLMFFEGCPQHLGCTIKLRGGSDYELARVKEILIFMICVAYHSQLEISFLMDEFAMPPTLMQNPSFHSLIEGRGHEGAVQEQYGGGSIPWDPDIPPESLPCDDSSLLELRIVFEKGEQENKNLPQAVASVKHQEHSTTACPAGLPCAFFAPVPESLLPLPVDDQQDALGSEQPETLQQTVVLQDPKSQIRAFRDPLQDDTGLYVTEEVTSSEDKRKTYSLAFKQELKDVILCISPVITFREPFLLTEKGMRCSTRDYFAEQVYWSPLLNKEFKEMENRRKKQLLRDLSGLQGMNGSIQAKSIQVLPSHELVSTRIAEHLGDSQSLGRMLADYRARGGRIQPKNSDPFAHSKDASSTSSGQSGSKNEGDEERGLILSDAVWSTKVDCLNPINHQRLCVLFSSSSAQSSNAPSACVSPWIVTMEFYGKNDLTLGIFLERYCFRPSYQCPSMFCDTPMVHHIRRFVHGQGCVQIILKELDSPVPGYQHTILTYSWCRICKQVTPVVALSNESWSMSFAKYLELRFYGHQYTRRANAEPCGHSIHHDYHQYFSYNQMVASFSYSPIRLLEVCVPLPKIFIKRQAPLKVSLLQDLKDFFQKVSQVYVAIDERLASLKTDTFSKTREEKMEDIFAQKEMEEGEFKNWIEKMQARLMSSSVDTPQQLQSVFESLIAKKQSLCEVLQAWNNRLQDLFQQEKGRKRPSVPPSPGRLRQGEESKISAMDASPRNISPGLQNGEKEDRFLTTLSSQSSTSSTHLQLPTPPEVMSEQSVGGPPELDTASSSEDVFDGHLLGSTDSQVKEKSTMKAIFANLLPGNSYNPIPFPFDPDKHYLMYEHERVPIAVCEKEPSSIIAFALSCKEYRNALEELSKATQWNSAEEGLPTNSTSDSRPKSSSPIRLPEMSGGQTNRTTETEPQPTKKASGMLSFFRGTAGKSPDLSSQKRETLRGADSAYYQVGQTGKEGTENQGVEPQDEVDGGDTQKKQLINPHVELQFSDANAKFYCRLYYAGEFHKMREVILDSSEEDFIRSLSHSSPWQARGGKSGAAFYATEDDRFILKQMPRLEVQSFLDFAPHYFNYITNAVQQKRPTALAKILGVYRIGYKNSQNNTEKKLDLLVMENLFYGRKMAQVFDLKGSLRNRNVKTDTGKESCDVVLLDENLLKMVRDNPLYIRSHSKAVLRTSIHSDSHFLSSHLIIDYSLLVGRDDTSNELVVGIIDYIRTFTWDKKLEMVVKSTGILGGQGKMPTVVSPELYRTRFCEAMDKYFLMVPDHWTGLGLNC
# assayName: Inhibition of PIKFYVE (unknown origin)
testReadout: pIC50
pIC50 here is simply -log10 of the concentration when that concentration is written in mol/L.

Query :: Note pIC50 for the compound shown: "Ic1cccc(/C=N/Nc2nc(N3CCOCC3)nc(N(c3ccccc3)c3ccccc3)n2)c1"
Result :: 8.05

---

# assayName: Binding affinity to AMPK (unknown origin)
# Set-up: species or system Homo sapiens
testReadout: IC50 (nM)
Give the value in nM but do not write nM after it.

Query :: // Input: "c1cc(-c2cnn3cc(-c4ccc(OCCN5CCCCC5)cc4)cnc23)ccn1" . Output its IC50 only.
Result :: 109

---

These records show Kd for AP2-associated protein kinase 1 (Homo sapiens).
Just the number please, in nM, no unit attached.

COc1ccccc1-c1cnc2ccc(N3CC[C@H](N(C)C(=O)C(C)(C)C)C3)nn12; 1
COc1ccc(-c2cnc3[nH]cc(C#Cc4cccnc4)c3c2)cc1OC; 4
CC(C)C(=O)Nc1n[nH]c2cc(-c3cccc(NS(=O)(=O)C4CC4)c3)ccc12; 18000

Now for a further compound.
Query :: Identify measured Kd corresponding to "COc1ccccc1-c1cnc2ccc(N3CC[C@H](N(C)C(=O)C(C)C)C3)nn12"
Result :: 1

---

# Tested on: Zika virus
# assayName: Antiviral activity against ZIKV infected in human SNB-19 cells
# Format: functional, organism-based
testReadout: pIC50
Just so you know, pIC50 here is -log10 of the concentration in molar units; reply with that number alone.

Query :: Identify pIC50 associated with the compound CC(=O)Nc1ccc(C(C)C(=O)Nc2ncc(C(C)C)s2)cc1 (stereo unspecified)
Result :: 5.76

---

# experimentalTarget: BMP-2-inducible protein kinase (Homo sapiens, UniProt Q9NSY1)
# Sequence (Q9NSY1 whole entry): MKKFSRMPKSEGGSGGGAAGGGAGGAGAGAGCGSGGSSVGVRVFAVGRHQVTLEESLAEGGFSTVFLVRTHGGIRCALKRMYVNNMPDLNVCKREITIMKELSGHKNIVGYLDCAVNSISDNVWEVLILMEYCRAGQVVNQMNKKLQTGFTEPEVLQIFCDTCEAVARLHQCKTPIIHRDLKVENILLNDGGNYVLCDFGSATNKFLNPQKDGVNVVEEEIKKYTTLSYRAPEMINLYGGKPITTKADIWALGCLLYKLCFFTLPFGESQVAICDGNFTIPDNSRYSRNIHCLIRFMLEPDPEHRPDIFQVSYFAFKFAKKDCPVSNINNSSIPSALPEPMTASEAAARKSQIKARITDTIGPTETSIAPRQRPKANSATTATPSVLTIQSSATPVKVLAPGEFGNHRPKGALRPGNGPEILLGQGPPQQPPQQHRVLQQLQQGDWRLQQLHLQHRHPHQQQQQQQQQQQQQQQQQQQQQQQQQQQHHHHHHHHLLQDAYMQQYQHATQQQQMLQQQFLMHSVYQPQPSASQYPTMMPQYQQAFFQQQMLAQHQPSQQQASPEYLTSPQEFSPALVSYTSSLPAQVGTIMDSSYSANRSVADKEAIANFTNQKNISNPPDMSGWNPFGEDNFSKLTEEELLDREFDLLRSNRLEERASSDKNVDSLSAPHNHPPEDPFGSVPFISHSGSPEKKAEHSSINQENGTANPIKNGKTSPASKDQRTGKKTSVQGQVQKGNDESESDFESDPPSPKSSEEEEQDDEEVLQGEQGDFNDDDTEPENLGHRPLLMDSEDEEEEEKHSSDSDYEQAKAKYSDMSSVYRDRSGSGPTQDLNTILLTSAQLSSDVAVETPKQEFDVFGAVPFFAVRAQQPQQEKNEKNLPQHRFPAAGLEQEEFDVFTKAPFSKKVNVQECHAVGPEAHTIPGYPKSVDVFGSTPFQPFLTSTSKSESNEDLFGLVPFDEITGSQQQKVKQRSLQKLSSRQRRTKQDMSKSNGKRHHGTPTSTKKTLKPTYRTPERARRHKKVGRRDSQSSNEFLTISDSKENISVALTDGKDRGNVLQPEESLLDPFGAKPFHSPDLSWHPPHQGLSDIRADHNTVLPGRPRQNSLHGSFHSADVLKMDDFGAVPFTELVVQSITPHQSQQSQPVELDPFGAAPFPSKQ
testReadout: Kd (nM)
Report the value in nM with no unit label.

Query :: Consider the molecule "COc1cc(O)c2c(c1)/C=C/C[C@H](O)[C@H](O)C(=O)/C=C\C[C@H](C)OC2=O" . State its measured Kd.
Result :: 3.8
